assay: The drug is tested on Z-020 corresponding to rabbit gut metagenome with ENA study accession number: PRJEB37062 and ENA sample accession number: ERS12561819 for biotransformation under anaerobic condition. The drug concentrations were measured over 9 timepoints collected between 0 and 24 hours of incubation by liquid-chromatography-coupled mass spectrometry (LC–MS); conditions: 2 µM; note: call rule not given here
Attribute Measured: Bacterial Biotransformation

[[record]]
compound = "COc1cc2nc(N3CCN(C(=O)c4ccco4)CC3)nc(N)c2cc1OC [PRAZOSIN]"
attribute_measured = "Bacterial Biotransformation"
assay_value = "Compound NOT metabolized"

[[record]]
compound = "CCCCC(=O)N(Cc1ccc(-c2ccccc2-c2nnn[nH]2)cc1)[C@H](C(=O)O)C(C)C"
attribute_measured = "Bacterial Biotransformation"
assay_value = "Compound NOT metabolized"

[[record]]
compound = "CCN(CC)CCNC(=O)c1cc(Cl)c(N)cc1OC [METOCLOPRAMIDE]"
attribute_measured = "Bacterial Biotransformation"
assay_value = "Compound NOT metabolized"

[[record]]
compound = "Br.CN(C)CCCC1(c2ccc(F)cc2)OCc2cc(C#N)ccc21 (stereo not drawn) [CITALOPRAM HYDROBROMIDE]"
attribute_measured = "Bacterial Biotransformation"
assay_value = "Compound NOT metabolized"

[[record]]
compound = "CCOC(=O)[C@H](CCc1ccccc1)N[C@@H](C)C(=O)N1[C@H](C(=O)O)C[C@@H]2CCC[C@@H]21"
attribute_measured = "Bacterial Biotransformation"
assay_value = "Compound metabolized"

[[record]]
compound = "CC(C)c1nc(CN(C)C(=O)N[C@H](C(=O)N[C@@H](Cc2ccccc2)C[C@H](O)[C@H](Cc2ccccc2)NC(=O)OCc2cncs2)C(C)C)cs1 [RITONAVIR]"
attribute_measured = "Bacterial Biotransformation"
assay_value = "Compound metabolized"

[[record]]
compound = "CCCc1nc2c(C)cc(-c3nc4ccccc4n3C)cc2n1Cc1ccc(-c2ccccc2C(=O)O)cc1"
attribute_measured = "Bacterial Biotransformation"
assay_value = "Compound metabolized"

[[record]]
compound = "CC(CN1c2ccccc2Sc2ccccc21)N(C)C (stereo not drawn) [PROMETHAZINE]"
attribute_measured = "Bacterial Biotransformation"
assay_value = "Compound NOT metabolized"

[[record]]
compound = "CC(Oc1c(Cl)cccc1Cl)C1=NCCN1 (stereo not drawn) [LOFEXIDINE]"
attribute_measured = "Bacterial Biotransformation"
assay_value = "Compound NOT metabolized"

[[record]]
compound = "CN1CCN(C2=Nc3cc(Cl)ccc3Nc3ccccc32)CC1 [CLOZAPINE]"
attribute_measured = "Bacterial Biotransformation"
assay_value = "Compound NOT metabolized"

[[record]]
compound = "COc1cc2c(c(OC)c1OC)-c1ccc(OC)c(=O)cc1[C@@H](NC(C)=O)CC2 [COLCHICINE]"
attribute_measured = "Bacterial Biotransformation"
assay_value = "Compound NOT metabolized"

[[record]]
compound = "CCCC1O[C@@H]2C[C@H]3[C@@H]4CCC5=CC(=O)C=C[C@]5(C)[C@H]4[C@@H](O)C[C@]3(C)[C@]2(C(=O)CO)O1 (stereo partly drawn) [BUDESONIDE]"
attribute_measured = "Bacterial Biotransformation"
assay_value = "Compound NOT metabolized"

[[record]]
compound = "COC1=CC(=O)C[C@@H](C)[C@]12Oc1c(Cl)c(OC)cc(OC)c1C2=O [GRISEOFULVIN]"
attribute_measured = "Bacterial Biotransformation"
assay_value = "Compound NOT metabolized"

[[record]]
compound = "OC(CCN1CCCCC1)(c1ccccc1)C1CCCCC1 (stereo not drawn) [TRIHEXYPHENIDYL]"
attribute_measured = "Bacterial Biotransformation"
assay_value = "Compound metabolized"

[[record]]
compound = "CC(C)NCC(O)COc1ccc(COCCOC(C)C)cc1.CC(C)NCC(O)COc1ccc(COCCOC(C)C)cc1.O=C(O)/C=C/C(=O)O (stereo not drawn) [BISOPROLOL FUMARATE]"
attribute_measured = "Bacterial Biotransformation"
assay_value = "Compound NOT metabolized"

[[record]]
compound = "NC12CC3CC(CC(C3)C1)C2 [AMANTADINE]"
attribute_measured = "Bacterial Biotransformation"
assay_value = "Compound NOT metabolized"

[[record]]
compound = "CN1CCc2c(c3ccccc3n2Cc2ccccc2)C1.CN1CCc2c(c3ccccc3n2Cc2ccccc2)C1.O=S(=O)(O)c1cccc2c(S(=O)(=O)O)cccc12"
attribute_measured = "Bacterial Biotransformation"
assay_value = "Compound NOT metabolized"

[[record]]
compound = "CO[C@]12C[C@@H](COC(=O)c3cncc(Br)c3)CN(C)[C@@H]1Cc1cn(C)c3cccc2c13 [NICERGOLINE]"
attribute_measured = "Bacterial Biotransformation"
assay_value = "Compound NOT metabolized"

[[record]]
compound = "COC(=O)[C@H]1[C@H]2C[C@@H]3c4[nH]c5cc(OC)ccc5c4CCN3C[C@H]2C[C@@H](OC(=O)c2cc(OC)c(OC)c(OC)c2)[C@@H]1OC [RESERPINE]"
attribute_measured = "Bacterial Biotransformation"
assay_value = "Compound NOT metabolized"

[[record]]
compound = "Fc1ccc([C@@H]2CCNC[C@H]2COc2ccc3c(c2)OCO3)cc1 [PAROXETINE]"
attribute_measured = "Bacterial Biotransformation"
assay_value = "Compound NOT metabolized"

[[record]]
compound = "CN(C)C(=O)C(CCN1CCC(O)(c2ccc(Cl)cc2)CC1)(c1ccccc1)c1ccccc1 [LOPERAMIDE]"
attribute_measured = "Bacterial Biotransformation"
assay_value = "Compound metabolized"

[[record]]
compound = "CC(CN(C)C)CN1c2ccccc2CCc2ccccc21.O=C(O)/C=C\\C(=O)O (stereo not drawn) [TRIMIPRAMINE MALEATE]"
attribute_measured = "Bacterial Biotransformation"
assay_value = "Compound NOT metabolized"

[[record]]
compound = "C[C@@H](CO)NC(=O)[C@@H]1C=C2c3cccc4[nH]cc(c34)C[C@H]2N(C)C1.O=C(O)/C=C\\C(=O)O [ERGONOVINE MALEATE]"
attribute_measured = "Bacterial Biotransformation"
assay_value = "Compound NOT metabolized"

[[record]]
compound = "COc1ccccc1N1CCN(CC(O)COc2cccc3ccccc23)CC1 (stereo not drawn) [NAFTOPIDIL]"
attribute_measured = "Bacterial Biotransformation"
assay_value = "Compound NOT metabolized"

[[record]]
compound = "CCOC(=O)[C@H](CCc1ccccc1)N[C@H]1CCc2ccccc2N(CC(=O)O)C1=O [BENAZEPRIL]"
attribute_measured = "Bacterial Biotransformation"
assay_value = "Compound metabolized"

[[record]]
compound = "COc1ccc2[nH]c([S+]([O-])Cc3ncc(C)c(OC)c3C)nc2n1 (stereo not drawn) [TENATOPRAZOLE]"
attribute_measured = "Bacterial Biotransformation"
assay_value = "Compound NOT metabolized"

[[record]]
compound = "COc1ccc2[nH]c([S+]([O-])Cc3ncc(C)c(OC)c3C)nc2c1 (stereo not drawn) [OMEPRAZOLE]"
attribute_measured = "Bacterial Biotransformation"
assay_value = "Compound NOT metabolized"

[[record]]
compound = "COc1cc2nc(N(C)CCCNC(=O)C3CCCO3)nc(N)c2cc1OC (stereo not drawn) [ALFUZOSIN]"
attribute_measured = "Bacterial Biotransformation"
assay_value = "Compound NOT metabolized"

[[record]]
compound = "COc1ccccc1OCC(O)COC(N)=O (stereo not drawn) [METHOCARBAMOL]"
attribute_measured = "Bacterial Biotransformation"
assay_value = "Compound NOT metabolized"

[[record]]
compound = "CN1C(=O)CC(C)(c2ccccc2)C1=O (stereo not drawn) [METHSUXIMIDE]"
attribute_measured = "Bacterial Biotransformation"
assay_value = "Compound NOT metabolized"

[[record]]
compound = "CNCCC(Oc1ccc(C(F)(F)F)cc1)c1ccccc1 (stereo not drawn) [FLUOXETINE]"
attribute_measured = "Bacterial Biotransformation"
assay_value = "Compound NOT metabolized"

[[record]]
compound = "CN1CCN(C(=O)O[C@H]2c3nccnc3C(=O)N2c2ccc(Cl)cn2)CC1 [ESZOPICLONE]"
attribute_measured = "Bacterial Biotransformation"
assay_value = "Compound NOT metabolized"

[[record]]
compound = "Cc1ccccc1N1C(=O)c2cc(S(N)(=O)=O)c(Cl)cc2NC1C (stereo not drawn) [METOLAZONE]"
attribute_measured = "Bacterial Biotransformation"
assay_value = "Compound NOT metabolized"


---

assay: The drug is tested on WLS-010 corresponding to human gut metagenome with ENA study accession number: PRJEB37062 and ENA sample accession number: ERS12561743 for biotransformation under anaerobic condition. The drug concentrations were measured over 9 timepoints collected between 0 and 24 hours of incubation by liquid-chromatography-coupled mass spectrometry (LC–MS); conditions: 2 µM
Attribute Measured: Bacterial Biotransformation

[[record]]
compound = "O=P(O)(O)O.c1ccc(CN(CC2=NCCN2)c2ccccc2)cc1 [ANTAZOLINE PHOSPHATE]"
attribute_measured = "Bacterial Biotransformation"
assay_value = "Compound NOT metabolized"

[[record]]
compound = "COc1c2occc2cc2ccc(=O)oc12 [METHOXSALEN]"
attribute_measured = "Bacterial Biotransformation"
assay_value = "Compound metabolized"

[[record]]
compound = "OCCOCCN1CCN(C2=Nc3ccccc3Sc3ccccc32)CC1 [QUETIAPINE]"
attribute_measured = "Bacterial Biotransformation"
assay_value = "Compound NOT metabolized"

[[record]]
compound = "CCN(CC)CCNC(C(=O)OCCC(C)C)c1ccccc1.Cl.Cl (centres undefined)"
attribute_measured = "Bacterial Biotransformation"
assay_value = "Compound metabolized"

[[record]]
compound = "Cc1cc2c(cc1S(N)(=O)=O)S(=O)(=O)CCC2"
attribute_measured = "Bacterial Biotransformation"
assay_value = "Compound NOT metabolized"

[[record]]
compound = "Cc1ccc(-c2nc3ccc(C)cn3c2CC(=O)N(C)C)cc1 [ZOLPIDEM]"
attribute_measured = "Bacterial Biotransformation"
assay_value = "Compound NOT metabolized"

[[record]]
compound = "Nc1nc2ccc(OC(F)(F)F)cc2s1 [RILUZOLE]"
attribute_measured = "Bacterial Biotransformation"
assay_value = "Compound metabolized"

[[record]]
compound = "COc1ccc2[nH]c([S+]([O-])Cc3ncc(C)c(OC)c3C)nc2n1 (centres undefined) [TENATOPRAZOLE]"
attribute_measured = "Bacterial Biotransformation"
assay_value = "Compound metabolized"

[[record]]
compound = "CC(=O)O[C@]1(C(C)=O)CC[C@H]2[C@@H]3C=C(Cl)C4=CC(=O)[C@@H]5C[C@@H]5[C@]4(C)[C@H]3CC[C@@]21C [CYPROTERONE ACETATE]"
attribute_measured = "Bacterial Biotransformation"
assay_value = "Compound metabolized"

[[record]]
compound = "Cc1cn([C@H]2C[C@H](N=[N+]=[N-])[C@@H](CO)O2)c(=O)[nH]c1=O [ZIDOVUDINE]"
attribute_measured = "Bacterial Biotransformation"
assay_value = "Compound metabolized"

[[record]]
compound = "COC(=O)C1=C(C)NC(C)=C(C(=O)OC(C)C)C1c1cccc2nonc12 (centres undefined) [ISRADIPINE]"
attribute_measured = "Bacterial Biotransformation"
assay_value = "Compound metabolized"

[[record]]
compound = "COC(=O)Nc1nc2ccc(C(=O)c3ccccc3)cc2[nH]1 [MEBENDAZOLE]"
attribute_measured = "Bacterial Biotransformation"
assay_value = "Compound metabolized"

[[record]]
compound = "CN1CCc2cccc3c2[C@H]1Cc1ccc(O)c(O)c1-3 [APOMORPHINE]"
attribute_measured = "Bacterial Biotransformation"
assay_value = "Compound NOT metabolized"

[[record]]
compound = "COc1cc2nc(N3CCN(C(=O)c4ccco4)CC3)nc(N)c2cc1OC [PRAZOSIN]"
attribute_measured = "Bacterial Biotransformation"
assay_value = "Compound metabolized"

[[record]]
compound = "CN1C(=O)CCS(=O)(=O)C1c1ccc(Cl)cc1 (centres undefined) [CHLORMEZANONE]"
attribute_measured = "Bacterial Biotransformation"
assay_value = "Compound NOT metabolized"

[[record]]
compound = "CN(C)CC(c1ccc(O)cc1)C1(O)CCCCC1.O=C(O)CCC(=O)O (centres undefined) [DESVENLAFAXINE SUCCINATE]"
attribute_measured = "Bacterial Biotransformation"
assay_value = "Compound NOT metabolized"

[[record]]
compound = "CCc1nn(CCCN2CCN(c3cccc(Cl)c3)CC2)c(=O)n1CCOc1ccccc1 [NEFAZODONE]"
attribute_measured = "Bacterial Biotransformation"
assay_value = "Compound metabolized"

[[record]]
compound = "CN1C(=O)CC(C)(c2ccccc2)C1=O (centres undefined) [METHSUXIMIDE]"
attribute_measured = "Bacterial Biotransformation"
assay_value = "Compound NOT metabolized"

[[record]]
compound = "CCN(CC)C(C)CN1c2ccccc2Sc2ccccc21 (centres undefined) [ETHOPROPAZINE]"
attribute_measured = "Bacterial Biotransformation"
assay_value = "Compound metabolized"

